Tested on: HIV-1 OC-100
METHOD DESCRIPTION: XTT cytopathicity assay, drug resistant HIV-1
Format: cell-based
SETUP CONDITIONS: MT-2, OC-100
METRIC: EC50 (µM)
Form entry: value (µM) — number only.

Reported EC50 for O=S1(=O)C[C@H](O)[C@H](O)CS1 (relative stereo) [NSC 624151, cis-1,1-dioxo[1,2]dithiane-4,5-diol] was 12.7

* * *

Tested on: HIV-1 Ba-L
METHOD DESCRIPTION: antiviral assay in Mo/M.PHI. (p24), Ba-L
Type: cell-based
SETUP CONDITIONS: Human immunodeficiency virus 1, BAL, cell-free p24
METRIC: pEC50
Note: pEC50 values are expressed as the negative base-10 logarithm of concentration in M.

Reported pEC50 for O=S1(=O)C[C@H](O)[C@H](O)CS1 (relative stereo) [NSC 624151, cis-1,1-dioxo[1,2]dithiane-4,5-diol] was 5.21

* * *

System: HIV-1 Calo-139
METHOD DESCRIPTION: XTT cytopathicity assay, drug resistant HIV-1
Assay type: cell-based
SETUP CONDITIONS: MT-2, Calo-139
METRIC: EC50 (µM)
Form entry: value (µM) — number only.

Response field EC50 (HIV-1 Calo-139) for item O=S1(=O)C[C@H](O)[C@H](O)CS1 (relative stereo) [NSC 624151, cis-1,1-dioxo[1,2]dithiane-4,5-diol] : 15

* * *

Tested on: HIV-1IIIB
METHOD DESCRIPTION: XTT cytopathicity assay, HIV-1IIIB
Format: cell-based
SETUP CONDITIONS: Human immunodeficiency virus 1, H9(T), HIV-1IIIB
Experimental: Initial anti-HIV screening was performed with CEM-SS cells and HIV-1RFusing the XTT cytoprotection assay as previously described (Weislow et al., J. National Cancer Inst. 81: 577-586, (1989)). HIV-1 isolates included common laboratory stains (RF, IIIB and MN), as well as a panel of HIV-1 clinical isolates (Cushman et al., J. Med. Chem. 37: 3040-3050, (1994)). […]
METRIC: EC50 (µM)
Form entry: value (µM) — number only.

Response field EC50 (HIV-1IIIB) for item O=S1(=O)C[C@H](O)[C@H](O)CS1 (relative stereo) [NSC 624151, cis-1,1-dioxo[1,2]dithiane-4,5-diol] : 13

* * *

TESTED TARGET: HIV-1 integrase (Human immunodeficiency virus type 1 group M subtype B, UniProt P04585)
pIC50: −log10 of the molar value.
METRIC: pIC50

Reported pIC50 for O=S1(=O)C[C@H](O)[C@H](O)CS1 (relative stereo) [NSC 624151, cis-1,1-dioxo[1,2]dithiane-4,5-diol] was < 4.00

* * *

Test system: HIV-1RF
METHOD DESCRIPTION: XTT cytoprotection (cytopathicity) anti-HIV assay, CEM-SS cells
Assay type: cell-based
SETUP CONDITIONS: CEM-SS cells, HIV-1RF; read-out: XTT Assay EC50
METRIC: pEC50
Note: pEC50 values are expressed as the negative base-10 logarithm of concentration in M.

Response field pEC50 (HIV-1RF) for item O=S1(=O)C[C@H](O)[C@H](O)CS1 (single isomer, unassigned) : 5.06

* * *

METRIC: IC50

Response field IC50 (HIV-1 protease (Human immunodeficiency virus type 1 group M subtype B)) for item O=S1(=O)C[C@H](O)[C@H](O)CS1 (relative stereo) [NSC 624151, cis-1,1-dioxo[1,2]dithiane-4,5-diol] : > 100 µM
